# System: MS2 coat protein
# protocol details: apparent KD of MS2 coat protein; higher = weaker reporter binding
# test context: Eterna round: R107; input ligand: theophylline 20 uM
Please respond with reported apparent KD of MS2 coat protein for every item in the list.
Numbers only; they are read as nM.

Item: UGGUGUAGGGUAAAUAGGAUUAGUACAGAAGGAGCGCGAAUAAACGCAGGUAGGUCGCUGGAAUACAUGAGGAUCACCCAUGUUC [Same State Arginine A GF 25] | apparent KD of MS2 coat protein: 24.7

Item: AGUGUUAUAACUGAUACCAGACUCUCAUGUUUACAUGAGGAUCACCCAUGUUAUUUCUUUGUCCCUUGGCAGCAGAAUUUACACA [JR_SSTheophyB_Sub009] | apparent KD of MS2 coat protein: 298

Item: CAUGUUGUUGAAGAUACCAGAUUCUGAACGUUCACAUGAGGAUCACCCAUGUAAGUCCGAGUCCCUUGGCAGCUUAUACAGGUGG [Reatlala] | apparent KD of MS2 coat protein: 50.8
